Molecular target: Recombinant DPP-IV (Homo sapiens, UniProt P27487)
Sequence (P27487 whole entry, species assumed): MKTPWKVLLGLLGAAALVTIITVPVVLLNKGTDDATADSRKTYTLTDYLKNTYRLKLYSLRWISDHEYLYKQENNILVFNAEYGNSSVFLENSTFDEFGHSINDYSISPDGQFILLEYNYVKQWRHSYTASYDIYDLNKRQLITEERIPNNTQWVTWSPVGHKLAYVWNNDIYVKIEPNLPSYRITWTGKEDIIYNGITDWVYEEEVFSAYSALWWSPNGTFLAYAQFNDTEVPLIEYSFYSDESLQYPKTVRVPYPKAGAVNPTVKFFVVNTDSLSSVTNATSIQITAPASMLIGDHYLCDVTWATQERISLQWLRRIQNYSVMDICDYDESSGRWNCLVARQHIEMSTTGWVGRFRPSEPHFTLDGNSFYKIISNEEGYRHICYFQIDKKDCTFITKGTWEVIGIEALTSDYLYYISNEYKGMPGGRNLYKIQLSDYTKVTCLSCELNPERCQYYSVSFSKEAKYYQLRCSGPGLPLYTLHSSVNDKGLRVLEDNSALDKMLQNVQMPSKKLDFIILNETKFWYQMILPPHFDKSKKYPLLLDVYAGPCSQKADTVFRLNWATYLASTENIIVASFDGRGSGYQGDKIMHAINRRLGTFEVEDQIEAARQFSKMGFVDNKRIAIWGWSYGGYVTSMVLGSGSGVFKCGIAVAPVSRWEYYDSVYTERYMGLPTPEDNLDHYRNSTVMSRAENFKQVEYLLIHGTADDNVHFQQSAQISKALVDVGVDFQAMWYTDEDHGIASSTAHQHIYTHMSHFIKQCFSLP
Assay: DPP-IV inhibition assay with chromogenic substrate
Format: biochemical
Parameters: purchased Chemicon International, Inc., Temecula, Calif
Settings: mean SEM of at least three determinations
Experimental: The reactions were initiated by adding 1 μl DPP-IV enzyme (0.05 mU) into each well and the absorbance at 410 nm was measured with 20-sec intervals over a 30-min period using a SpectraMax plate reader (Molecular Devices, Corp., Sunnyvale, Calif.). The velocities of each reaction at different inhibitor concentrations were calculated and the reciprocal velocities were plotted against inhibitor concentrations in Dixon graphs. […]
Starred links: 1 amine or outer side, 2 acyl side, 3 side chain; linkers in the order of their positions; H or OH if unused. Non-standard residues stand in square brackets, D forms with d. *: point of attachment. Pyrrolidine(2S-CN) = N#C[C@@H]1CCCN1*; εLys = N[C@@H](CCCCN[*:1])C(=O)[*:2]; AEEA = NCCOCCOCC(=O)O
reported.metric: IC50

[[record]]
substance = "H-YAEGTFISDYSIALDKIHQQDFVNWLLAQKPSSGAPPPS[AEEA][εLys]-{Pyrrolidine(2S-CN)}"
observed_measurement = "82 nM"

